protocol details: Equilibrium water solubility at pH 2.9
Assay type: physicochemical
measured property: solubility thermodynamic

>>> observed_value("CNCC(NC(=O)c1csc(-c2nc3c(cc2O)-c2nc(cs2)C(=O)N[C@@H]([C@@H](C)O)C(=O)N/C(=C(\\C)OC)c2nc(cs2)C(=O)N[C@@H]2c4nc(cs4)C(=O)N[C@@H](COC(=O)c4c5c6c(cccc6n4O)COC(=O)[C@@H](O[C@H]4C[C@](C)(O)[C@H](N(C)C)[C@H](C)O4)[C@H]2OC5)c2nc-3cs2)n1)C(N)=O (stereo partly specified)")
"> 3500 µg/mL"

====

Reported solubility thermodynamic values for the following compounds.
protocol details: Equilibrium water solubility at pH 2.9
Format: physicochemical
measured property: solubility thermodynamic

>>> observed_value("CO/C(C)=C1/NC(=O)[C@H]([C@@H](C)O)NC(=O)c2csc(n2)-c2cc(O)c(-c3nc(C(=O)NC(CN(CCO)CCO)C(N)=O)cs3)nc2-c2csc(n2)[C@@H]2COC(=O)c3c4c5c(cccc5n3O)COC(=O)[C@@H](O[C@H]3C[C@](C)(O)[C@H](N(C)C)[C@H](C)O3)[C@@H](OC4)[C@H](NC(=O)c3csc1n3)c1nc(cs1)C(=O)N2 (stereo partly drawn)")
"> 1700 µg/mL"
>>> observed_value("CO/C(C)=C1/NC(=O)[C@H]([C@@H](C)O)NC(=O)c2csc(n2)-c2cc(O)c(-c3nc(C(=O)NC(CN(C)CCN(C)C)C(N)=O)cs3)nc2-c2csc(n2)[C@@H]2COC(=O)c3c4c5c(cccc5n3O)COC(=O)[C@@H](O[C@H]3C[C@](C)(O)[C@H](N(C)C)[C@H](C)O3)[C@@H](OC4)[C@H](NC(=O)c3csc1n3)c1nc(cs1)C(=O)N2 (stereo partly drawn)")
"> 10000 µg/mL"
>>> observed_value("CO/C(C)=C1/NC(=O)[C@H]([C@@H](C)O)NC(=O)c2csc(n2)-c2cc(O)c(-c3nc(C(=O)NC(CN4CCCC4)C(N)=O)cs3)nc2-c2csc(n2)[C@@H]2COC(=O)c3c4c5c(cccc5n3O)COC(=O)[C@@H](O[C@H]3C[C@](C)(O)[C@H](N(C)C)[C@H](C)O3)[C@@H](OC4)[C@H](NC(=O)c3csc1n3)c1nc(cs1)C(=O)N2 (stereo partly drawn)")
"> 3000 µg/mL"

====

protocol details: Equilibrium water solubility at pH 2.7
Format: physicochemical
measured property: solubility thermodynamic

>>> observed_value("CO/C(C)=C1/NC(=O)[C@H]([C@@H](C)O)NC(=O)c2csc(n2)-c2cc(O)c(-c3nc(C(=O)NC(CN4CCN(C(C)=O)CC4)C(N)=O)cs3)nc2-c2csc(n2)[C@@H]2COC(=O)c3c4c5c(cccc5n3O)COC(=O)[C@@H](O[C@H]3C[C@](C)(O)[C@H](N(C)C)[C@H](C)O3)[C@@H](OC4)[C@H](NC(=O)c3csc1n3)c1nc(cs1)C(=O)N2 (stereo partly specified)")
"> 2400 µg/mL"

====

Reported solubility thermodynamic values for the following compounds.
protocol details: Equilibrium water solubility at pH 3.3
Type: physicochemical
measured property: solubility thermodynamic

>>> observed_value("CO/C(C)=C1/NC(=O)[C@H]([C@@H](C)O)NC(=O)c2csc(n2)-c2cc(O)c(-c3nc(C(=O)NC(CN(C)C)C(N)=O)cs3)nc2-c2csc(n2)[C@@H]2COC(=O)c3c4c5c(cccc5n3O)COC(=O)[C@@H](O[C@H]3C[C@](C)(O)[C@H](N(C)C)[C@H](C)O3)[C@@H](OC4)[C@H](NC(=O)c3csc1n3)c1nc(cs1)C(=O)N2 (stereo partly drawn)")
"> 10000 µg/mL"
>>> observed_value("CO/C(C)=C1/NC(=O)[C@H]([C@@H](C)O)NC(=O)c2csc(n2)-c2cc(O)c(-c3nc(C(=O)NC(CNCCOCCOCCO)C(N)=O)cs3)nc2-c2csc(n2)[C@@H]2COC(=O)c3c4c5c(cccc5n3O)COC(=O)[C@@H](O[C@H]3C[C@](C)(O)[C@H](N(C)C)[C@H](C)O3)[C@@H](OC4)[C@H](NC(=O)c3csc1n3)c1nc(cs1)C(=O)N2 (stereo partly drawn)")
"> 3100 µg/mL"
>>> observed_value("CO/C(C)=C1/NC(=O)[C@H]([C@@H](C)O)NC(=O)c2csc(n2)-c2cc(O)c(-c3nc(C(=O)NC(CN4CCN(CC(=O)O)CC4)C(N)=O)cs3)nc2-c2csc(n2)[C@@H]2COC(=O)c3c4c5c(cccc5n3O)COC(=O)[C@@H](O[C@H]3C[C@](C)(O)[C@H](N(C)C)[C@H](C)O3)[C@@H](OC4)[C@H](NC(=O)c3csc1n3)c1nc(cs1)C(=O)N2 (stereo partly drawn)")
"> 2600 µg/mL"

====

Tested on: Staphylococcus aureus
protocol details: In vitro antibacterial activity against methicillin-sensitive Staphylococcus aureus A15090
Format: functional
Reported MIC values for the following compounds.
measured property: MIC (µg/mL)

>>> observed_value("CO/C(C)=C1/NC(=O)[C@H]([C@@H](C)O)NC(=O)c2csc(n2)-c2cc(O)c(-c3nc(C(=O)NC(CN4CCN(CCOCCO)CC4)C(N)=O)cs3)nc2-c2csc(n2)[C@@H]2COC(=O)c3c4c5c(cccc5n3O)COC(=O)[C@@H](O[C@H]3C[C@](C)(O)[C@H](N(C)C)[C@H](C)O3)[C@@H](OC4)[C@H](NC(=O)c3csc1n3)c1nc(cs1)C(=O)N2 (stereo partly drawn)")
0.5
>>> observed_value("CO/C(C)=C1/NC(=O)[C@H]([C@@H](C)O)NC(=O)c2csc(n2)-c2cc(O)c(-c3nc(C(=O)NC(CNCCOCCOCCO)C(N)=O)cs3)nc2-c2csc(n2)[C@@H]2COC(=O)c3c4c5c(cccc5n3O)COC(=O)[C@@H](O[C@H]3C[C@](C)(O)[C@H](N(C)C)[C@H](C)O3)[C@@H](OC4)[C@H](NC(=O)c3csc1n3)c1nc(cs1)C(=O)N2 (stereo partly drawn)")
0.25
>>> observed_value("CO/C(C)=C1/NC(=O)[C@H]([C@@H](C)O)NC(=O)c2csc(n2)-c2cc(O)c(-c3nc(C(=O)NC(CN4CCN(CCN5CCOCC5)CC4)C(N)=O)cs3)nc2-c2csc(n2)[C@@H]2COC(=O)c3c4c5c(cccc5n3O)COC(=O)[C@@H](O[C@H]3C[C@](C)(O)[C@H](N(C)C)[C@H](C)O3)[C@@H](OC4)[C@H](NC(=O)c3csc1n3)c1nc(cs1)C(=O)N2 (stereo partly drawn)")
0.25

====

protocol details: Equilibrium water solubility at pH 3.9
Format: physicochemical
measured property: solubility thermodynamic

>>> observed_value("CO/C(C)=C1/NC(=O)[C@H]([C@@H](C)O)NC(=O)c2csc(n2)-c2cc(O)c(-c3nc(C(=O)NC(CN(C)CCCn4ccnc4)C(N)=O)cs3)nc2-c2csc(n2)[C@@H]2COC(=O)c3c4c5c(cccc5n3O)COC(=O)[C@@H](O[C@H]3C[C@](C)(O)[C@H](N(C)C)[C@H](C)O3)[C@@H](OC4)[C@H](NC(=O)c3csc1n3)c1nc(cs1)C(=O)N2 (stereo partly specified)")
"> 10.6 mg/mL"

====

measurement target: Neuronal acetylcholine receptor; alpha4/beta2 (Rattus norvegicus, UniProt P09483+P12390)
Sequence (P09483 whole entry): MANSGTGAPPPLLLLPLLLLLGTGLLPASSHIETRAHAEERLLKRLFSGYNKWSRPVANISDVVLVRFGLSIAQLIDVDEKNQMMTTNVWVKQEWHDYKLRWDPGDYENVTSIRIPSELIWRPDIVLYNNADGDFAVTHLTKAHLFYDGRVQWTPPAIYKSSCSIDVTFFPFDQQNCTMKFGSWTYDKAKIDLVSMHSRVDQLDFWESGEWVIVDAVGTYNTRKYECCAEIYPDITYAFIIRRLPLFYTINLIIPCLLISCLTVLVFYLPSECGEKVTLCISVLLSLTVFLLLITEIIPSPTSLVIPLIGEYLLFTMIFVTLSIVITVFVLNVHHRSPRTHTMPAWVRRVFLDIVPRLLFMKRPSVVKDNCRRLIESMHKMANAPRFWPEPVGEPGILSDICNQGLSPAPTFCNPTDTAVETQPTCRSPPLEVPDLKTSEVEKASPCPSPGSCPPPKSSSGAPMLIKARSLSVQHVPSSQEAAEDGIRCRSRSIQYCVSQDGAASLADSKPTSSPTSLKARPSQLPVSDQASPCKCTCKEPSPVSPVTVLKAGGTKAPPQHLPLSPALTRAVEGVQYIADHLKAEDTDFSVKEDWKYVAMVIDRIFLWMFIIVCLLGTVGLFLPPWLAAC
Sequence (P12390 whole entry): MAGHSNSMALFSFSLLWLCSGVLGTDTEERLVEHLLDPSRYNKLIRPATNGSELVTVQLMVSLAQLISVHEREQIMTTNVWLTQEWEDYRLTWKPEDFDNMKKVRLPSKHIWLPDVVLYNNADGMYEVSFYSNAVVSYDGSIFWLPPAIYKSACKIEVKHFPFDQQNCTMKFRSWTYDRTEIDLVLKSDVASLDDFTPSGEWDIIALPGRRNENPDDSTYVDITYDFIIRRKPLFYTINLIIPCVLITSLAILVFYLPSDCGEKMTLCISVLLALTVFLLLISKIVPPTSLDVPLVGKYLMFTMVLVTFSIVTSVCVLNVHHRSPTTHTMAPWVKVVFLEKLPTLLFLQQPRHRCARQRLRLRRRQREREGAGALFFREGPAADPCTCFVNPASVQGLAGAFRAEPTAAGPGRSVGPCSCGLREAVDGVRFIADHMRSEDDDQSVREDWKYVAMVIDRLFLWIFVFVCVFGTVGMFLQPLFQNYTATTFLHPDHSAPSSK
protocol details: Inhibition of [3H]- cytisine binding to Nicotinic acetylcholine receptor alpha4-beta2 of rat cortical membranes
measured property: Ki

>>> observed_value("Clc1ccc(C2CC3CCC2CN3)cn1 (stereo unspecified)")
"0.34 nM"

====

System: Staphylococcus aureus
protocol details: In vitro antibacterial activity against methicillin-sensitive Staphylococcus aureus A15090
Format: functional
Reported MIC values for the following molecules.
measured property: MIC (µg/mL)

>>> observed_value("CO/C(C)=C1/NC(=O)[C@H]([C@@H](C)O)NC(=O)c2csc(n2)-c2cc(O)c(-c3nc(C(=O)NC(CNCCN4CCN(C)CC4)C(N)=O)cs3)nc2-c2csc(n2)[C@@H]2COC(=O)c3c4c5c(cccc5n3O)COC(=O)[C@@H](O[C@H]3C[C@](C)(O)[C@H](N(C)C)[C@H](C)O3)[C@@H](OC4)[C@H](NC(=O)c3csc1n3)c1nc(cs1)C(=O)N2 (some centres not stated)")
0.25
>>> observed_value("CO/C(C)=C1/NC(=O)[C@H]([C@@H](C)O)NC(=O)c2csc(n2)-c2cc(O)c(-c3nc(C(=O)NC(CNCCNC(C)=O)C(N)=O)cs3)nc2-c2csc(n2)[C@@H]2COC(=O)c3c4c5c(cccc5n3O)COC(=O)[C@@H](O[C@H]3C[C@](C)(O)[C@H](N(C)C)[C@H](C)O3)[C@@H](OC4)[C@H](NC(=O)c3csc1n3)c1nc(cs1)C(=O)N2 (some centres not stated)")
1

====

protocol details: Equilibrium water solubility at pH 3.4
Format: physicochemical
measured property: solubility thermodynamic

>>> observed_value("CO/C(C)=C1/NC(=O)[C@H]([C@@H](C)O)NC(=O)c2csc(n2)-c2cc(O)c(-c3nc(C(=O)NC(CN4CCN(CCN(C)C)CC4)C(N)=O)cs3)nc2-c2csc(n2)[C@@H]2COC(=O)c3c4c5c(cccc5n3O)COC(=O)[C@@H](O[C@H]3C[C@](C)(O)[C@H](N(C)C)[C@H](C)O3)[C@@H](OC4)[C@H](NC(=O)c3csc1n3)c1nc(cs1)C(=O)N2 (stereo partly specified)")
"> 3800 µg/mL"
